Would you kindly list Kd for each of these binders?
TARGET DESC: eTau1a (amino acids 2-166 of fetal tau) (Homo sapiens (Human), UniProt P10636 2-541)
Sequence (P10636 other isoform, or with tags, fused parts or gaps): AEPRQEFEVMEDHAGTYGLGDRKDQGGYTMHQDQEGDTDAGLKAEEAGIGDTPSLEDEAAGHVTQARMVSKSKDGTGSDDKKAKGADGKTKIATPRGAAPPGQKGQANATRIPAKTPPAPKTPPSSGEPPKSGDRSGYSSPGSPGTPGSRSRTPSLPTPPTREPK
METHOD DESCRIPTION: relative binding affinity, method not named (Table 4)
Your answer should be a plain number; it is taken to be in nM.

Kd reading for VH4/Vk4 (antibody, V domains shown, member of the group m7; also called humanized IPN002 variant VH4/Vk4) VH: EVQLVESGGALVKPGGSLRLSCAASGFSFSKYGMSWVRQAPGKGLEWVATISSSGSRTYYPDSVKGRFTISRDNAKNTLYLQMNSLRAEDTAMYYCAISWDGAMDYWGQGTTVTVSS VL: DVVMTQSPLSLPVTLGQPASISCKSSQSIVHSNGNTYLEWYLQKPGQSPQLLIYKVSNRFSGVPDRFSGSGSGTDFTLKISRVEAEDVGVYYCFQGSLVPWAFGGGTKVEIK : 0.325

The binder listed as VH1/Vk1 (antibody, V domains shown, member of the group m7; also called humanized IPN002 variant VH1/Vk1) VH: EVHLVESGGALVKPGGSLRLSCAASGFSFSKYGMSWVRQAPGKGLEWVATISSSGSRTYYPDSVKGRFTISRDNAKNTLYLQMSSLKSEDTAMYYCSISWDGAMDYWGQGTSVTVSS VL: DVLMTQSPLSLPVTLGQPASISCKSSQSIVHSNGNTYLEWYLQKPGQSPQLLVYKVSNRFSGVPDRFSGSGSGTDFTLKISRVEAEDVGTYYCFQGSLVPWAFGGGTKVEIK has a reported Kd of 0.294

The reported Kd of the binder VH1/Vk2 (antibody, V domains shown, member of the group m7; also called humanized IPN002 variant VH1/Vk2) VH: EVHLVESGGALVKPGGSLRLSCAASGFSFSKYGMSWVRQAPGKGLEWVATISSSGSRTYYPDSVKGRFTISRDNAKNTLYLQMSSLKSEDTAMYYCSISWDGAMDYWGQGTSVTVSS VL: DVVMTQSPLSLPVTLGQPASISCKSSQSIVHSNGNTYLEWYLQKPGQSPQLLVYKVSNRFSGVPDRFSGSGSGTDFTLKISRVEAEDVGTYYCFQGSLVPWAFGGGTKVEIK was 0.212

Form field Kd, entry VH4/Vk3 (antibody, V domains shown, member of the group m7; also called humanized IPN002 variant VH4/Vk3) VH: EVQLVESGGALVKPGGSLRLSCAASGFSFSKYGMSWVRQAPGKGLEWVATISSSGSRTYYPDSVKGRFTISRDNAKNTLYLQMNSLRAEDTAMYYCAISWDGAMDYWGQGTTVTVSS VL: DVVMTQSPLSLPVTLGQPASISCKSSQSIVHSNGNTYLEWYLQKPGQSPQLLVYKVSNRFSGVPDRFSGSGSGTDFTLKISRVEAEDVGVYYCFQGSLVPWAFGGGTKVEIK : 0.178
